assay: Compound solubility in water; details: water, Compound Solubility in Water
Outcome: True for solubility of at least 0.9 µg/mL; False for anything lower.

Example entries begin here.
CC(C)c1ccnc2c(C(=O)N[C@H]3CCCc4ccccc43)ccn12 :: True
Cc1cc(C)n2ccc(C(=O)N[C@@H]3CCCc4ccccc43)c2n1 :: False
COCc1cc(C(F)F)n2ccc(C(=O)NC3(C)CCOc4cc(F)c(F)cc43)c2n1 (stereo not drawn) :: True
Cc1cc(C)n2ccc(C(=O)NC3CCC4(CCCO4)C3)c2n1 (stereo not drawn) :: True
Cc1cc(Cl)nc2c(C(=O)Nc3ccc(-c4cocn4)cc3)ccn12 :: False

Q: Record CCCCO[C@H]1CC[C@H](NC(=O)c2ccn3c(C(F)F)cc(C)nc23)CC1 ; criterion: solubility no lower than 0.9 µg/mL. Met?
A: True

Q: Record C#Cc1cccc(C(C)(C)NC(=O)c2ccn3c(COC)cc(COC)nc23)c1 ; criterion: solubility no lower than 0.9 µg/mL. Met?
A: True

====

test: Compound solubility in water; settings: water, Compound Solubility in Water, in water
Listing: solubility of selected compounds
Numbers only here, please. The scale is µg/mL.

Q: Give solubility for the following compound: COC1CCC(NC(=O)c2ccn3c(C)cc(C)nc23)c2ccccc21 (centres unmarked)
A: 13.6

Q: Give solubility for the following compound: Cc1cc(C)n2ccc(C(=O)N[C@H]3CC[C@H](OC(C)(C)C)CC3)c2n1
A: 17.1

Q: Give solubility for the following compound: Cc1cc(C)n2ccc(C(=O)Nc3ccc(Cl)c(-c4cnco4)c3)c2n1
A: 0.01

Q: Give solubility for the following compound: Cc1cc(C)n2ccc(C(=O)NC3CCOc4ccccc43)c2n1 (centres unmarked)
A: 3.8

====

biological target: glucocerebrosidase (Gcase) (Homo sapiens, UniProt P04062); construct: micellar solution containing 10 nM GCase and 100 nM saposin C; assay: Glucocerebrosidase (Gcase) activation assay, 4-methylumbelliferyl-beta-D-glucopyranoside substrate, fluorescence readout; type: biochemical; settings: test compound at 0.1 μM; read-out: Percent Gcase Activation, 0.1 μM Test Compound
Sequence (P04062 40-536): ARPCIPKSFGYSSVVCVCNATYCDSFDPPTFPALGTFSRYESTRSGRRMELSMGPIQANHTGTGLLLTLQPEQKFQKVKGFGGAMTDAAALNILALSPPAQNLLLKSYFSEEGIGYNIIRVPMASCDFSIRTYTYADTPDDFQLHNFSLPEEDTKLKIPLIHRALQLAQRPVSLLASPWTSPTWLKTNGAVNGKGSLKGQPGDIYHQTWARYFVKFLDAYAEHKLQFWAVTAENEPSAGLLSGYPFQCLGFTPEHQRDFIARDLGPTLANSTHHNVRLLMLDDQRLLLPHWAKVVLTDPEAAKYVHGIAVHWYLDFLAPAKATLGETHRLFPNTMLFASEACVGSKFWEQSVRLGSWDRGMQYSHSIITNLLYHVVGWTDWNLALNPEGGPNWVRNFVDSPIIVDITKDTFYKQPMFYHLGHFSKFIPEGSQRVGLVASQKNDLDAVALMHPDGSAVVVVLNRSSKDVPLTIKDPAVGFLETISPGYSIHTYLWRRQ
Listing: activation at 0.1 µM of selected compounds

Below are worked cases with known answers.
CCCCO[C@H]1CC[C@H](NC(=O)c2ccn3c(C(F)F)cc(COC)nc23)CC1 :: > 20%
Cc1cc(C)n2ccc(C(=O)Nc3ccc(-c4ccncc4)cc3)c2n1 :: 10 to 20%
Cc1cc(Cl)nc2c(C(=O)Nc3ccc(-c4cocn4)cc3)ccn12 :: > 20%

Q: Give activation at 0.1 µM for the following compound: Cc1cc(C)n2ccc(C(=O)NC3CCC(C4CCCO4)CC3)c2n1 (stereo not drawn)
A: < 10%

Q: Give activation at 0.1 µM for the following compound: COC1CCc2ccc(NC(=O)c3ccn4c(C)cc(C)nc34)cc21 (stereo not drawn)
A: > 20%

Q: Give activation at 0.1 µM for the following compound: CCCCOC(=O)N1CC(NC(=O)c2ccn3c(C)cc(C)nc23)C1
A: < 10%

Q: Give activation at 0.1 µM for the following compound: Cc1cc(C)n2ccc(C(=O)Nc3ccc4c(c3)OCO4)c2n1
A: > 20%

Q: Give activation at 0.1 µM for the following compound: Cc1cc(C)n2ccc(C(=O)Nc3ccc4c(c3)C(Oc3cc(C)on3)CC4)c2n1 (stereo not drawn)
A: > 20%

Q: Give activation at 0.1 µM for the following compound: COC1CCC(NC(=O)c2ccn3c(C)cc(C)nc23)c2ccccc21 (stereo not drawn)
A: 10 to 20%

====

Biological target: glucocerebrosidase (Gcase) (Homo sapiens, UniProt P04062)
Construct: micellar solution containing 10 nM GCase and 100 nM saposin C
Assay: Glucocerebrosidase (Gcase) activation assay, 4-methylumbelliferyl-beta-D-glucopyranoside substrate, fluorescence readout
Format: biochemical
Conditions: test compound at 0.1 μM; read-out: Percent Gcase Activation, 0.1 μM Test Compound
Protocol: The ability of exemplary compounds to activate glucocerebrosidase (Gcase) was measured. A 484 μL aliquot of a 1.0 mg/mL solution of phosphatidylserine (PS) (Sigma P7769) in chloroform was evaporated under a stream of nitrogen for 1 hour. The lipid film was dissolved over 4 minutes of vigorous vortexing in 40 mL of 176 mM K2HPO4/50 mM citric acid (pH 4.7) containing 7.5 μL of triton X-100, resulting in a mixed micellar preparation with a composition of 0.32 mM triton and 0.37 mol % PS. […]
experimental_endpoint: activation at 0.1 µM

Below are worked cases with known answers.
Cc1cc(C)n2ccc(C(=O)NC3Cc4ccccc4C3)c2n1 :: 10 to 20%
CNc1cc(C)n2ccc(C(=O)NC3c4ccccc4C4CC3C4)c2n1 (stereo not drawn) :: > 20%
Cc1cc(C)n2ccc(C(=O)NC3CCCCc4ccccc43)c2n1 (stereo not drawn) :: > 20%

Q: Give activation at 0.1 µM for the following molecule: Cc1cc(C)n2ccc(C(=O)NC3Cc4ccc(-c5ncco5)cc4C3)c2n1 (stereo not drawn)
A: 10 to 20%

Q: Give activation at 0.1 µM for the following molecule: Cc1cc(C)n2ccc(C(=O)Nc3ccc(-c4cccs4)nc3)c2n1
A: > 20%

Q: Give activation at 0.1 µM for the following molecule: Cc1cc(C)n2ccc(C(=O)NC3CCC4(CCCCO4)CC3)c2n1 (stereo not drawn)
A: < 10%

Q: Give activation at 0.1 µM for the following molecule: Cc1cc(C)n2ccc(C(=O)Nc3ccc4c(c3)C(Oc3ccccn3)CC4)c2n1 (stereo not drawn)
A: < 10%

Q: Give activation at 0.1 µM for the following molecule: Cc1cc(C)n2ccc(C(=O)N[C@H]3CC[C@H](OC4CC4)CC3)c2n1
A: 10 to 20%

Q: Give activation at 0.1 µM for the following molecule: Cc1cc(C)n2ccc(C(=O)NC3CCCc4ccc(C#N)cc43)c2n1 (stereo not drawn)
A: 10 to 20%

====

test: Compound solubility in water; settings: water, Compound Solubility in Water
experimental_endpoint: log10 solubility (log10 of the value in µg/mL)
In plain terms, each number is the log10 of measured solubility in µg/mL.

Cc1cc(C)n2ccc(C(=O)NC3CC=C(CCCO)c4ccccc43)c2n1 (stereo not drawn) [III-144] :: -0.10
COCCOc1ccc2c(c1)C(NC(=O)c1ccn3c(C)cc(C)nc13)CCO2 (stereo not drawn) [III-170] :: 0.96
CO[C@H]1CC[C@H](NC(=O)c2ccn3c(C)cc(C)nc23)CC1 [III-89] :: 1.38
Cc1cc(C)n2ccc(C(=O)Nc3ccc(-n4ccnc4)cc3)c2n1 [III-86] :: -0.52
Cc1cc(C)n2ccc(C(=O)NC3(C)CCOc4ccccc43)c2n1 (stereo not drawn) [III-181] :: 0.26
CCCCCO[C@H]1CC[C@H](NC(=O)c2ccn3c(C)cc(C)nc23)CC1 [III-201] :: -0.30
[2H]c1c(C([2H])([2H])[2H])nc2c(C(=O)NC3(C)CCOc4ccccc43)cc([2H])n2c1C([2H])([2H])[2H] (stereo not drawn) [III-159] :: 0.69
COCc1cc(C)n2ccc(C(=O)NC(C)(C)c3ccc(-c4cocn4)cc3)c2n1 [III-48] :: 0.54

Alright, here's another compound for you.
Q: Give log10 solubility for the following compound: CO[C@H]1CC[C@H](C(C)(C)NC(=O)c2ccn3c(C)cc(Cl)nc23)CC1 [III-75]
A: 0.72

====

target: glucocerebrosidase (Gcase) (Homo sapiens, UniProt P04062); construct: micellar solution containing 10 nM GCase and 100 nM saposin C; assay: Glucocerebrosidase (Gcase) activation assay, 4-methylumbelliferyl-beta-D-glucopyranoside substrate, fluorescence readout; assay type: biochemical; conditions: test compound at 0.1 μM; read-out: Percent Gcase Activation, 0.1 μM Test Compound
experimental_endpoint: activation at 0.1 µM

Below are worked cases with known answers.
Cc1cc(C)n2ccc(C(=O)Nc3ccc4c(c3)C(n3oc(C)cc3=O)CC4)c2n1 (centres unmarked) :: < 10%
CCCO[C@H]1CC[C@H](NC(=O)c2ccn3c(C)cc(Cl)nc23)CC1 :: > 20%
CCCOC1CC(CNC(=O)c2ccn3c(C)cc(C)nc23)C1 (centres unmarked) :: < 10%

Q: Give activation at 0.1 µM for the following molecule: CCO[C@H]1CC[C@H](NC(=O)c2ccn3c(C)cc(C)nc23)CC1
A: < 10%

Q: Give activation at 0.1 µM for the following molecule: Cc1cc(C)n2ccc(C(=O)Nc3ccc(-c4cocn4)nc3)c2n1
A: < 10%

====

test: Compound solubility in water; details: water, Compound Solubility in Water, in water
Outcome: yes for solubility of at least 10 µg/mL; no for anything lower.

Example entries begin here.
Cc1ccnc2c(C(=O)NC3(C)CCOc4ccc(F)cc43)ccn12 (stereo not shown) [III-264] :: yes
Cc1cc(C(F)(F)F)n2ccc(C(=O)NC3CCCc4ccccc43)c2n1 (stereo not shown) [III-253] :: no
CCC(F)(F)CN1CCC(NC(=O)c2ccn3c(C)cc(C)nc23)CC1 [III-204] :: yes
Cc1cc(C)n2ccc(C(=O)N[C@H]3CC[C@H](OCC(C)C)CC3)c2n1 [III-288] :: no
Cc1ccnc2c(C(=O)NC3(C)CCCc4ccccc43)ccn12 (stereo not shown) [III-262] :: no
Cc1cc(C)n2ccc(C(=O)NC3CCN(CC(F)(F)F)C3)c2n1 (stereo not shown) [III-235] :: yes
CCOCCOC1CCC(NC(=O)c2ccn3c(C)cc(C)nc23)c2ccccc21 (stereo not shown) [III-231] :: yes
COCC#Cc1ccc(NC(=O)c2ccn3c(C)cc(C)nc23)cn1 [III-282] :: no
Cc1cc(C)n2ccc(C(=O)Nc3ccc(N4CCCCC4)cc3)c2n1 [III-281] :: no
Cc1cc(C)n2ccc(C(=O)Nc3ccc(-c4ccncc4)cc3)c2n1 [III-277] :: no

Q: Record Cc1cc(C)n2ccc(C(=O)NC3CCC(c4ncco4)CC3)c2n1 (stereo not shown) [III-245] ; criterion: solubility no lower than 10 µg/mL. Met?
A: yes

Q: Record Cc1cc(C)n2ccc(C(=O)Nc3ccc4c(c3)C(Oc3nnc(C)o3)CC4)c2n1 (stereo not shown) [III-221] ; criterion: solubility no lower than 10 µg/mL. Met?
A: no

Q: Record Cc1cc(C)n2ccc(C(=O)Nc3ccc(-c4cnn(C)c4)nc3)c2n1 [III-283] ; criterion: solubility no lower than 10 µg/mL. Met?
A: no

Q: Record CCCCCN(C)C(=O)[C@H]1CC[C@H](NC(=O)c2ccn3c(C)cc(C)nc23)CC1 [III-203] ; criterion: solubility no lower than 10 µg/mL. Met?
A: yes

Q: Record CCOC1(C)CCC(NC(=O)c2ccn3c(C)cc(C)nc23)CC1 (stereo not shown) [III-232] ; criterion: solubility no lower than 10 µg/mL. Met?
A: no

Q: Record CCCCCO[C@H]1CC[C@H](NC(=O)c2ccn3c(C)ccnc23)CC1 [III-260] ; criterion: solubility no lower than 10 µg/mL. Met?
A: yes

Q: Record Cc1cc(C)n2ccc(C(=O)Nc3ccc4c(c3)C(O)CC4)c2n1 (stereo not shown) [III-222] ; criterion: solubility no lower than 10 µg/mL. Met?
A: no

Q: Record CCCCCO[C@H]1CC[C@@H](NC(=O)c2ccn3c(C)cc(C)nc23)CC1 [III-202] ; criterion: solubility no lower than 10 µg/mL. Met?
A: no

Q: Record CCCCO[C@H]1CC[C@H](NC(=O)c2ccn3c(COC)cc(C4CC4)nc23)CC1 [III-268] ; criterion: solubility no lower than 10 µg/mL. Met?
A: no
